# target or system: recombinant human PLA2 (snpPLA2) (Homo sapiens)
# Sequence (P14555 21-144): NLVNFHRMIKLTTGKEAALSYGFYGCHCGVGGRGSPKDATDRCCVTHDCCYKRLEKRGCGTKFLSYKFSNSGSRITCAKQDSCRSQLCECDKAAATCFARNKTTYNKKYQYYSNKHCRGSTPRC
# test details: PLA2 inhibition, radiolabelled E. coli assay, recombinant human PLA2
# Format: biochemical
# experimental context: recombinant human PLA2; 30 min preincubation
quantity: IC50 (concentration of the drug required to inhibit 50% of PLA2)

// known answers, use as guide
>  <compound>
CN(C)c1ccc(O)c2c1C(C)(O)C1CC3CC(O)=C(C(N)=O)C(=O)C3(O)C(O)=C1C2=O (stereo not shown)

>  <result>
30 µg/mL

$$$$
>  <compound>
CC1(O)c2cccc(O)c2C(=O)C2=C(O)C3(O)C(=O)C(C(N)=O)=C(O)C(O)C3CC21 (stereo not shown) [CMT-6, 4-hydroxy-4-dedimethylaminotetracycline]

>  <result>
17 µg/mL

$$$$

INPUT: If you can, please state the reported IC50 (concentration of the drug required to inhibit 50% of PLA2) value of CC1(O)c2cccc(O)c2C(=O)C2=C(O)C3(O)C(=O)C(C(N)=O)=C(O)CC3CC21 (stereo not shown) .
OUTPUT: 37 µg/mL

INPUT: If you can, please state the reported IC50 (concentration of the drug required to inhibit 50% of PLA2) value of CC1(O)c2c(Cl)ccc(O)c2C(=O)C2=C(O)C3(O)C(=O)C(C(N)=O)=C(O)CC3CC21 (stereo not shown) .
OUTPUT: 42 µg/mL
